- targetEntity: MMP-2 (Homo sapiens, UniProt P08253)
- Construct: made in house; provided by Dr. Gregory Goldberg, Washington University
- Sequence (P08253 110-660): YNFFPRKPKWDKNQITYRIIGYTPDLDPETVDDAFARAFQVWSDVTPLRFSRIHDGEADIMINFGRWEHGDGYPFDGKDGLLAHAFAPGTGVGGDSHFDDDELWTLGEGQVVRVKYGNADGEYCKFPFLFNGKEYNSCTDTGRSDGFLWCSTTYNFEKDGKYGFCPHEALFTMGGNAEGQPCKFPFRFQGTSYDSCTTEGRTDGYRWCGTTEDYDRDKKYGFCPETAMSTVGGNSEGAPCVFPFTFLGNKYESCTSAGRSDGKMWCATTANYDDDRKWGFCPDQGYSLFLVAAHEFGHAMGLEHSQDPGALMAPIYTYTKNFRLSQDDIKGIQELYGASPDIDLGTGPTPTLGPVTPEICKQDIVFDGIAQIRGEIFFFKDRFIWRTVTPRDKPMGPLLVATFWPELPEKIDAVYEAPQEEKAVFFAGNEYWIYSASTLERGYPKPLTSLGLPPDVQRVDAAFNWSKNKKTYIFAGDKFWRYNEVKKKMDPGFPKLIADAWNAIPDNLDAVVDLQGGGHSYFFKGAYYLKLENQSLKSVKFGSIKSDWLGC
- assayText: biochemical
- assayConditions: recombinant human MMP-2, MCA peptide substrate 4 μM, pH 7.5, room temperature; read-out: MMP-2 IC50
Assign IC50 to each entry below.
Your answer should be a plain number; it is taken to be in nM.

## Input GET /values?readout=IC50&system=MMP-2 (Homo sapiens, UniProt P08253)&item= O=C(NO)C1(S(=O)(=O)c2ccc(N3CC[C@@H](OCc4ccc(OC(F)(F)F)cc4)C3)cc2)CCOCC1
## Output 140

## Input GET /values?readout=IC50&system=MMP-2 (Homo sapiens, UniProt P08253)&item= O=C(NO)C1(S(=O)(=O)c2ccc(OC3CCC(OCc4ccccc4Cl)C3)cc2)CCOCC1 (stereo not drawn) [Example 688]
## Output 110

## Input GET /values?readout=IC50&system=MMP-2 (Homo sapiens, UniProt P08253)&item= O=C(NO)C1(S(=O)(=O)c2ccc(OC3CN(S(=O)(=O)Cc4ccccc4)C3)cc2)CCOCC1
## Output 150

---

Assign IC50 to each entry below.
- targetEntity: MMP-2 (Homo sapiens, UniProt P08253)
- Construct: made in house; provided by Dr. Gregory Goldberg, Washington University
- assayText: biochemical
- assayConditions: read-out: MMP-2 IC50
Structures can show the parent of a compound that is named as a salt.
Answer with the number, then the unit.

## Input GET /values?readout=IC50&system=MMP-2 (Homo sapiens, UniProt P08253)&item= COCCN1CCC(C(=O)NO)(S(=O)(=O)c2ccc(N3CCC(C(=O)N4CC(C)CC(C)C4)CC3)cc2)CC1 (stereo not drawn) [Example 233, Monohydrochloride]
## Output 2050 nM

## Input GET /values?readout=IC50&system=MMP-2 (Homo sapiens, UniProt P08253)&item= CC1CC(C)CN(C(=O)C2CCN(c3ccc(S(=O)(=O)C4(C(=O)NO)CCSCC4)cc3)CC2)C1 (stereo not drawn) [Example 162]
## Output 7000 nM

## Input GET /values?readout=IC50&system=MMP-2 (Homo sapiens, UniProt P08253)&item= COc1ccc(Oc2ccc(S(=O)(=O)C3(C(=O)NO)CCS(=O)(=O)CC3)cc2)cc1 [Example 156]
## Output 0.45 nM
